- ASSAY_SUMMARY: gradient 5% acetonitrile 3 min, to 50% in 2 min, to 85% in 15 min, held 3 min, 100 µL/min
- MEASUREMENT_CONDITIONS: column: Zorbax Extend-C18 2.1 x 50 mm; eluents: water / acetonitrile, 0.1% formic acid
Lab note: compare RP-LC retention time with 800 s, writing Y if less and N if equal or more.

Query: In plain terms, does `CCN(CC)C(=O)c1c2c(cn(-c3ccc(F)cc3)c1=O)C(=O)CC(C)(C)C2` come in under 800 s for RP-LC retention time?
Response: Y

Query: Find out if reported RP-LC retention time for CC(Oc1ccccc1)C(=O)N1CCN(C(=O)c2nnn3c2COC(c2ccc(Cl)cc2)C3)CC1 (centres undefined) is less than 800 s
Response: N
